- MEASURED_ON: OGA (Homo sapiens)
- Construct: HEK293 cells inducible for P301L mutant human Tau (isoform 2N4R) were established at Janssen; endogenous in cells; host or cells: HEK293 cells inducible for P301L mutant human Tau (2N4R)
- PROTOCOL_SUMMARY: OGA cellular assay (ICC detection of O-GlcNAcylated proteins in HEK293 cells inducible for P301L mutant human Tau)
- Assay type: cell-based
- STATED_CONDITIONS: HEK293 cells inducible for P301L mutant human Tau, 6 hours incubation; read-out: Cellular hOGA; pEC50 (converted)
MEASURE_NAME: EC50 (nM)

Answered cases to consult:
Cc1cc(C[C@H]2CCCN(C(C)c3ccc4cn(C)nc4n3)C2)cc(C)n1 (mixture of isomers) [Compound 12ab] :: 251
COc1cc(C2CCCN(C(C)c3ccc4oc(C)nc4n3)C2)cc(C)n1 (racemic) [Compound 18] :: 158

1: Cc1cc(C[C@H]2CCCN(C(C)c3ccc4sc(C)nc4n3)C2)cc(C)n1 (single isomer, unassigned) [Compound 42b]
2: Cc1cc(C[C@@H]2CCN(C(C)c3nc4nc(C)sc4cc3F)C2)cc(C)n1 (mixture of isomers) [Compound 50]
3: COc1cc(C2CCCN(C(C)c3ccc4oc(C)nc4n3)C2)cc(C(F)(F)F)n1 (racemic) [Compound 20]
4: Cc1cc(CO[C@H]2CCCN(C(C)c3cc4nc(C)sc4cc3F)C2)cc(C)n1 (single isomer, unassigned) [Compound 101]
Ask: Task field, ranking: reported EC50, descending order. Form field (ranking): labels in requested order.
Result: 3, 2, 4, 1
(3: 631 nM, 2: 200 nM, 4: 50.1 nM, 1: 10 nM)

###

- MEASURED_ON: OGA (Homo sapiens)
- Construct: HEK293 cells inducible for P301L mutant human Tau (isoform 2N4R) were established at Janssen; endogenous in cells; host or cells: HEK293 cells inducible for P301L mutant human Tau (2N4R)
- PROTOCOL_SUMMARY: OGA cellular assay (ICC detection of O-GlcNAcylated proteins in HEK293 cells inducible for P301L mutant human Tau)
- Type: cell-based
- STATED_CONDITIONS: HEK293, HEK293 cells inducible for P301L mutant human Tau, maximum = Thiamet G 200 uM
MEASURE_NAME: Emax (%)

Answered cases to consult:
Cc1cc(C[C@H]2CCCN(C(C)c3ccc4nc(C)[nH]c4n3)C2)cc(C)n1 (mixture of isomers) [Compound 8] :: 23
COc1cc(C2CCCN(C(C)c3ccc4oc(C)nc4n3)C2)cc(C)n1 (racemic) [Compound 18] :: 76
Cc1cc(C[C@@H]2CCN([C@@H](C)c3cc4nc(C)sc4cc3F)C2)cc(C)n1 [Compound 60] :: 66
Cc1cc(OC[C@H]2CCCN(C(C)c3nc4nc(C)sc4cc3F)C2)cc(C)n1 (some centres unmarked) [Compound 91] :: 66
COc1cc(N[C@H]2CCCN(C(C)c3ccc4sc(C)nc4n3)C2)cc(C)n1 (some centres unmarked) [Compound 83] :: 78
Cc1cc(C[C@@H]2CCN([C@H](C)c3cc4nc(C)sc4cc3F)C2)cc(C)n1 [Compound 59] :: 11

1: Cc1cc([C@H]2CCCN([C@H](C)c3nc4nc(C)sc4cc3F)C2)cc(C)n1 (single isomer, unassigned) [Compound 86]
2: Cc1cc([C@H]2CCCN([C@H](C)c3ccc4sc(C)nc4n3)C2)nc(C)n1 (racemic) [Compound 70]
Ask: // pick min by Emax: 1 , 2 Write the label of whichever entry you select.
Result: 1
